target: T1, human GFRα3 expressed with a C-terminal myc-myc-hexahistidine tag (human, UniProt O60609 32-374, biotinylated (sites not given) in ELISA format 2 and in the Octet cross-competition; not in SPR); assay: blocking ELISA 2, biotin-hGFRα3-mmH to coated hARTEMIN-mmH + hRET-10His
T1 construct: also called hGFRα3-mmh; hGFRα3-mmH
T1 sequence (O60609 other isoform, or with tags, fused parts or gaps limits assumed): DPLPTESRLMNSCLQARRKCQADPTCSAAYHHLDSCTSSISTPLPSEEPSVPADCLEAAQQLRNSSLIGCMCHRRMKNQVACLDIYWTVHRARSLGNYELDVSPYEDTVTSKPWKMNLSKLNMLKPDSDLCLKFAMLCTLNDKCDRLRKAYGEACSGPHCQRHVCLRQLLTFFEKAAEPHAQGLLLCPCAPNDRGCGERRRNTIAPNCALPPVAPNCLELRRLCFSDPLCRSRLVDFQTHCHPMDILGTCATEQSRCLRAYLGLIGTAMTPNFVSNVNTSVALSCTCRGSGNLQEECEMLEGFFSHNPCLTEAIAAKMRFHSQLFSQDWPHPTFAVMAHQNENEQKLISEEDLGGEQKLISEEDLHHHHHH
Assay metric: % max blocking
Remember to quote the unit after the number.

Tell me the measured % max blocking of H4H2357S (antibody, human IgG4, V domains shown, human IgG4 Fc (H4H)) VH: EVQLVESGGGLVQPGGSLRLSCAASTFTFSSYAMTWVRQAPGKGLEWVSSISGSGDSTYYADSVKGRFTISRDNSKNTLFLQMNSLRAEDTAVYYCAKKDGPGRYYVRYGMDVWGQGTTVTVSS VL: DIQMTQSPSSVSASVGDRVTITCRASQGISSWLAWYQQKPGKAPKLLIYTTSSLQSGVPSRFSGSGSGTDFTLTISSLQPEDFATYYCQQANSFPLTFGGGTKVDIK , please.
86%

Fill in the blank: the reported % max blocking of H4H2243N2 (antibody, human IgG4, V domains shown, human IgG4 Fc (H4H)) VH: QVQLVQSGAEVKKPGASVKVSCKASGYTFTSYGIIWVRQAPGQGLEWMGWISGYNGNTNYAQNLQGRVTMTTDTSTTTAYMELRSLRSDDTAVYYCARWGIATRPYYYYGMDVWGQGTTVTVSS VL: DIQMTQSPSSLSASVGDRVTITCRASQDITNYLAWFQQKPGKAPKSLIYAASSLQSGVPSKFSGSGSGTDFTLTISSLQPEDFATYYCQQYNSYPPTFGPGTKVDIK is ____.
95%

% max blocking for H4H2344S (antibody, human IgG4, V domains shown, human IgG4 Fc (H4H)) VH: EVQLVESGGGVVQPGRSLRLSCAASGFSFSDYVMHWVRQAPGKGLEWVASIWFDGSNEFYADSVKGRFTISRDNSKNTLFLQMNSLRAEDTAVYYCAKKGVLVATSAFDIWGQGTMVTVSS VL: DIQMTQSPSSLSASVGDRVTITCRASQSINNYLNWYHQKPGKAPKLLIYAASSLQSGVPSRFSGSGSGTDYTLTISSLQPEDFGNYYCQQSYRTSMYTFGQGTKVEIK ?
100%

Would you mind telling me what % max blocking value was observed for H4H2342P (antibody, human IgG4, V domains shown, human IgG4 Fc (H4H)) VH: EVQLLESGGGLVQPGGSLRLSCAASGFTFSTYAMSWVRQAPGKGLEWVSAIRGNGVNTYYGDSMKGRFTISRDNSKDTLYLQMNSLRAEDTAVYYCAKNKWELLVFEYWGQGTLVTVSS VL: DIQMTQSPSSLSASVGDRVTITCRASQDISNYLAWYQQKPGKVPKLLIYAASTLQSGVPFRFSGSGSGTDFTLTISSLQPEDVATYYCQKYNSAPPFGPGTKVDIK ?
97%

Give the measured % max blocking of H4H2293P (antibody, human IgG4, V domains shown, human IgG4 Fc (H4H)) VH: QVQLVESGGGVVQPGRSLRLSCAASGFSFSDYVMHWVRQAPGKGLEWVASIWFDGSNELYADSVKGRFTISRDNSKNTLFLQMNSLRAEDTAVYYCAKKGVLVATSAFHIWGQGTMVTVSS VL: AIQMTQSPSSLSASVGDRVTITCRASQNINNYLNWYHQKPGKAPNLLIYAASSLQSGVPSRFSGSGSGTDYTLTISSLQPEDFGNYYCQQSYSTSMYTFGQGTKLEIK .
95%

From: patent US20140056903A1
